Read-out: adenosine kinase (ADK) gene, ADK (gene 132)
Experiment: LTEA_HepaRG_ADK: Life Technologies and Expression Analysis (LTEA) Assay for adenosine kinase (ADK) gene using HepaRG (AID 2283471)
Settings: mRNA level, 48 h; actives raise or lower the signal
Calls of active or inactive are those of the source. The calls were made as follows: active = hit-call score of the fitted dose curve at least 0.9, where 1 is the maximum; inactive = score below 0.9.
Answer with one of the outcomes active, inactive

Example entries and their recorded answers appear below.
| compound | assigned_class |
| --- | --- |
| [Cl-].[Cl-].[Hg+2] | inactive |
| O=Cc1ccco1 | inactive |
| COc1cc(C=O)cc2c1[C@H](COC(N)=O)[C@]1(OC(C)=O)ON2C[C@H]2[C@@H]1N2C(C)=O | active |
| CCN(CC)N=O | inactive |
| ClCCOCCCl | inactive |

// outcome(item) with item = `CN(C)c1ccc(C(=O)c2ccc(N(C)C)cc2)cc1` inactive

// outcome(item) with item = `Cc1ccc(N)c(N)c1` inactive

// outcome(item) with item = CCOc1cccc(C2(N3CCN(c4ccccc4)CC3)CCC(C)CC2)c1 (configuration not stated) inactive

// outcome(item) with item = CCCCCCCCCCCCCN1CC(C)OC(C)C1 (configuration not stated) inactive

----------
Read-out: Human Leukocyte Antigen - DR isotype (HLADR), HLA-DRA (gene 3122)
Test: BSK_BE3C_HLADR: BioMAP Diversity Plus: BE3C Assay for Human Leukocyte Antigen - DR isotype (HLADR) Biomarker Activity (AID 2283032)
Conditions: primary human bronchial epithelial cells; actives raise or lower the signal
Calls of active or inactive are those of the source. The calls were made as follows: active = hit-call score of the fitted dose curve at least 0.9, where 1 is the maximum; inactive = score below 0.9.
Answer with one of the outcomes yes (1) (active), no (0) (inactive)

Example entries and their recorded answers appear below.
| compound | assigned_class |
| --- | --- |
| ClCCOCCCl | no (0) |
| CCN(CC)CCO | no (0) |
| CCOc1cccc(C2(N3CCN(c4ccccc4)CC3)CCC(C)CC2)c1 (centres undefined) | no (0) |
| ClC1=C(Cl)C2(Cl)C3C(Cl)C=CC3C1(Cl)C2(Cl)Cl (centres undefined) | yes (1) |
| Clc1ccc(C(c2ccc(Cl)cc2)C(Cl)(Cl)Cl)cc1 | no (0) |
| CCC[CH2][Sn]([Cl])([CH2]CCC)[CH2]CCC | yes (1) |
| CCCCCCCCCCCCCN1CC(C)OC(C)C1 (centres undefined) | no (0) |
| c1ccc(N=Nc2ccccc2)cc1 | no (0) |
| Nc1ccc(Cc2ccc(N)cc2)cc1 | no (0) |
| Oc1ccc2ccc3cccc4ccc1c2c34 | yes (1) |

// outcome(item) with item = CC(O)CCO (centres undefined) no (0)

// outcome(item) with item = `CN(C)[C@@H]1C(=O)C(C(N)=O)=C(O)[C@@]2(O)C(=O)C3=C(O)c4c(O)cccc4[C@@](C)(O)[C@H]3C[C@@H]12` no (0)

// outcome(item) with item = CCCCC(CC)COC(=O)c1ccc(C(=O)OCC(CC)CCCC)c(C(=O)OCC(CC)CCCC)c1 (centres undefined) no (0)

// outcome(item) with item = `OCCCBr` no (0)

----------
Test: ATG_DR4_LXR_CIS: Attagene CIS-FACTORIAL HepG2 Assay for human Liver X Receptor (LXR), DR4 submotif (AID 2282929)
Settings: HepG2 Attagene DR4 cis-reporter, mRNA transcription; actives raise or lower the signal
Calls of active or inactive are those of the source. How the source made its calls: active means hit-call score of the fitted dose curve at least 0.9, where 1 is the maximum; inactive means score below 0.9.
Answer with one of the outcomes 1 (yes) for active, 0 (no) for inactive

| molecule | assigned_class |
| --- | --- |
| O=[N+]([O-])c1ccc(Oc2ccc(Cl)cc2Cl)cc1 | 1 (yes) |
| Brc1ccc(Oc2ccccc2)cc1 | 1 (yes) |
| Cc1cc(N=Nc2ccccc2C)ccc1N | 0 (no) |
| CN(C)C(=O)Nc1ccc(Cl)cc1 | 0 (no) |
| CCCCCCCCCCCCCN1CC(C)OC(C)C1 (configuration not stated) | 0 (no) |

// outcome(item) with item = CC(O)CCO (configuration not stated) 0 (no)

// outcome(item) with item = `Cn1cc(-c2ccccc2)c(=O)c(-c2cccc(C(F)(F)F)c2)c1` 1 (yes)

// outcome(item) with item = `CN(C)c1ccccc1` 0 (no)

// outcome(item) with item = `CN(C)c1ccc(C(=O)c2ccc(N(C)C)cc2)cc1` 0 (no)

// outcome(item) with item = `CCCCCCCCn1sccc1=O` 0 (no)

// outcome(item) with item = `CC(C)(C)OOC(C)(C)CCC(C)(C)OOC(C)(C)C` 1 (yes)

// outcome(item) with item = `O=Cc1ccco1` 0 (no)

// outcome(item) with item = c1ccc(C2CO2)cc1 (configuration not stated) 0 (no)

// outcome(item) with item = `Nc1ccc(Cl)cc1N` 0 (no)

// outcome(item) with item = `Cc1ccc([N+](=O)[O-])cc1` 0 (no)

// outcome(item) with item = C[N+](C)(C)CC1CO1 (configuration not stated) 0 (no)

// outcome(item) with item = `[Cl-].[Cl-].[Hg+2]` 1 (yes)

// outcome(item) with item = CCOc1cccc(C2(N3CCN(c4ccccc4)CC3)CCC(C)CC2)c1 (configuration not stated) 0 (no)

// outcome(item) with item = O=C(O)C1C2CCC(O2)C1C(=O)O (configuration not stated) 0 (no)
